Target: Pdr3 (UniProt P33200)
Sequence: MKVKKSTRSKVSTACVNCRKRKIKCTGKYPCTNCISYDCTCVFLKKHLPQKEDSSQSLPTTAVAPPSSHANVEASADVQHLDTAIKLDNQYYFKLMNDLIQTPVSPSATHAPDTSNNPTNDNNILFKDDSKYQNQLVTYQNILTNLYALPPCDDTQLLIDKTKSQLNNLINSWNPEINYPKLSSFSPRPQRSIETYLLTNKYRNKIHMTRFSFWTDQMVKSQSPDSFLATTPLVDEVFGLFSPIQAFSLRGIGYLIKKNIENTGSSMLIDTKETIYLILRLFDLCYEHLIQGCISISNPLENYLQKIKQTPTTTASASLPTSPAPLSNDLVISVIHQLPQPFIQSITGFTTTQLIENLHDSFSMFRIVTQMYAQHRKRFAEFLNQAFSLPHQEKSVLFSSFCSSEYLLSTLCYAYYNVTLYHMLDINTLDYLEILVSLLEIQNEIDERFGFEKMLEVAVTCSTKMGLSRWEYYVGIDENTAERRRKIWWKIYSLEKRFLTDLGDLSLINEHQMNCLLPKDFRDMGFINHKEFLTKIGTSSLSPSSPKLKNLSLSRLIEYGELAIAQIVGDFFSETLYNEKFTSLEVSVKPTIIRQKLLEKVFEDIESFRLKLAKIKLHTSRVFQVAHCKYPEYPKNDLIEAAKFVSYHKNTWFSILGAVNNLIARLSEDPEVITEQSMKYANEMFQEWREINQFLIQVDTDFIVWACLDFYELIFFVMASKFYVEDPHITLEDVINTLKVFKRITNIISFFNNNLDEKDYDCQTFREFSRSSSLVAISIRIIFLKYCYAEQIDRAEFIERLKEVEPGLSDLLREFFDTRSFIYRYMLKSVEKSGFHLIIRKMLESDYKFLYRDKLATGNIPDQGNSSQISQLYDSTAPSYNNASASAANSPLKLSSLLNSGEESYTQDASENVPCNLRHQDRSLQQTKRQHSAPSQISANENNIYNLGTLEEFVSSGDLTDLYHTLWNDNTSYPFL
Experiment: PBM E-score (8-mer binding enrichment) (E-score (-0.5 to 0.5)); higher = stronger / more preferred TF binding
Conditions: protein concentration: 200 nM; construct: GST-full length
Over roughly 33,000 sequences, “E-score (-0.5 to 0.5)” has its median near -0.035; the highest 2% begin near 0.35. Many of the other results were omitted from the sample, so the highest values are more common in it than they were.
Outcome: class 1 for PBM E-score of at least 0.06; class 0 for anything lower.

A selection of reference data follows.
sequence_input	label
AATCCCAT	class 0
CTCAGTAC	class 0
CGGGGATC	class 1
GTGGGAAA	class 0
CGGGGATA	class 1
GGGAAAAA	class 1
ACAAGCAT	class 0
GCGGAGTA	class 1
TGACGCAA	class 0
ACCGCGGA	class 1

Lookup: Given the entry `AAATTGCG` , answer whether its PBM E-score meets or surpasses 0.06.
Found: class 1

Lookup: Entry `ACCGCGGG` : is its PBM E-score no less than 0.06?
Found: class 1
